- System: OapR/P_H16_RS01330 beta-alanine biosensor (pEH147)
- ASSAY SUMMARY: relative induction of RFP reporter vs primary effector (background-corrected); higher = stronger activation of the biosensor;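 further: RFP excited at 585 nm with emission read at 620 nm, culture medium blanks subtracted from fluorescence and absorbance prior to normalisation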
- CONDITION SET: inducer concentration 5 mM; 6 h; Cupriavidus necator H16; minimal medium + 0.4% gluconate
Documented relative induction of RFP reporter across a set of compounds
Number in %, nothing else.

Task: Item under review: N[C@@H](Cc1c[nH]c2ccccc12)C(=O)O . Reported relative induction of RFP reporter?
Result: -0.39

Task: Next record, please: O=C(O)[C@@H](O)[C@@H](O)[C@H](O)[C@@H](O)C(=O)O [glucarate]
Result: 0.058

Task: Next record, please: O=C(O)C1=CCCCC1 [cyclohexene-1-carboxylate]
Result: 1.03

Task: Next record, please: O=C(O)C1CCCC1 [cyclopentane-1-carboxylate]
Result: 3.18

Task: Next record, please: CC(N)CC(=O)O (stereo not drawn) [3-aminobutanoate]
Result: 57.8

* * *

- Test system: HpdA/P_H16_RS24175 L-tyrosine biosensor (pEH158)
- ASSAY SUMMARY: relative induction of RFP reporter vs primary effector (background-corrected); higher = stronger activation of the biosensor
- CONDITION SET: inducer concentration 5 mM; 6 h; Cupriavidus necator H16; minimal medium + 0.4% gluconate
REPORTED ENDPOINT: relative induction of RFP reporter (%)
Number in %, nothing else.

As a guide, the following entries are already answered.
COMPOUND: NCCS(=O)(=O)O [taurine]
relative induction of RFP reporter / %: -0.19
//
COMPOUND: NC(=O)CC[C@H](N)C(=O)O [L-glutamine]
relative induction of RFP reporter / %: -0.216
//
COMPOUND: O=S(=O)(O)CCO [isethionate]
relative induction of RFP reporter / %: -0.112

Task: Item under review: O=C(O)CC(CC(=O)O)C(=O)O [tricarballylate] . Reported relative induction of RFP reporter?
Result: -0.173

Task: Next record, please: C[C@H](O)C(=O)O [L-lactate]
Result: -0.188

* * *

- Test system: BadR/P_H16_RS27200 cyclohexanecarboxylate biosensor (pEH159)
- ASSAY SUMMARY: relative induction of RFP reporter vs primary effector (background-corrected); higher = stronger activation of the biosensor
- CONDITION SET: inducer concentration 5 mM; 6 h; Cupriavidus necator H16; minimal medium + 0.4% gluconate
Documented relative induction of RFP reporter across a set of molecules
Number in %, nothing else.

As a guide, the following entries are already answered.
MOLECULE: O=C(O)C(O)C(=O)O
REPORTED ENDPOINT: relative induction of RFP reporter
REPORTED RESULT: -0.292
//
MOLECULE: O=C(O)C1CCCC1 [cyclopentane-1-carboxylate]
REPORTED ENDPOINT: relative induction of RFP reporter
REPORTED RESULT: 10.9
//
MOLECULE: Oc1ccc(O)cc1 [hydroquinone]
REPORTED ENDPOINT: relative induction of RFP reporter
REPORTED RESULT: 4.02

Task: Item under review: O=C(O)C1=CCCCC1 [cyclohexene-1-carboxylate] . Reported relative induction of RFP reporter?
Result: 80.5

Task: Next record, please: NCC(N)C(=O)O (stereo not given) [2,3-diaminopropanoate]
Result: -0.224

Task: Next record, please: NC(=O)CC[C@H](N)C(=O)O
Result: -0.359

Task: Next record, please: O=C(O)c1cccnc1 [nicotinate]
Result: -0.229

Task: Next record, please: N[C@@H](Cc1c[nH]c2ccccc12)C(=O)O
Result: -0.253

* * *

- Test system: PhgR/P_H16_RS05530 phenylglyoxylate biosensor (pEH155)
- ASSAY SUMMARY: relative induction of RFP reporter vs primary effector (background-corrected); higher = stronger activation of the biosensor
- CONDITION SET: inducer concentration 5 mM; 6 h; Cupriavidus necator H16; minimal medium + 0.4% gluconate
REPORTED ENDPOINT: relative induction of RFP reporter (%)
Number in %, nothing else.

As a guide, the following entries are already answered.
MOLECULE: O=C(O)c1cccnc1 [nicotinate]
REPORTED RESULT: -0.587
--
MOLECULE: C[C@@H](O)C(=O)O [D-lactate]
REPORTED RESULT: -0.587
--
MOLECULE: O=C(O)C(O)c1ccccc1 (configuration not stated)
REPORTED RESULT: -0.332

Task: Item under review: Oc1ccccc1O . Reported relative induction of RFP reporter?
Result: 0.769

Task: Next record, please: O=C(O)CC(CC(=O)O)C(=O)O [tricarballylate]
Result: -0.562

* * *

- Tested on: TtdR/P_H16_RS10665 tartrate biosensor (pEH083)
- ASSAY SUMMARY: relative induction of RFP reporter vs primary effector (background-corrected); higher = stronger activation of the biosensor
- CONDITION SET: inducer concentration 5 mM; 6 h; Cupriavidus necator H16; minimal medium + 0.4% gluconate
Documented relative induction of RFP reporter across a set of molecules
Number in %, nothing else.

As a guide, the following entries are already answered.
MOLECULE: CC(N)CC(=O)O (stereo not drawn) [3-aminobutanoate]
relative induction of RFP reporter, %: 0.625
--
MOLECULE: CC(=O)CCC(=O)O
relative induction of RFP reporter, %: 1.16

Task: Item under review: O=S(=O)(O)CCO [isethionate] . Reported relative induction of RFP reporter?
Result: 2.47

Task: Next record, please: O=C(O)/C=C\C=C/C(=O)O [cis,cis-muconate]
Result: 0.125

Task: Next record, please: C[C@H](N)C(=O)O
Result: -0.256

Task: Next record, please: O=C(O)C1=CCCCC1 [cyclohexene-1-carboxylate]
Result: 0.391

Task: Next record, please: Oc1ccccc1
Result: 0.576

Task: Next record, please: O=c1[nH]cnc2nc[nH]c12
Result: 0.797

* * *

- Tested on: OapR/P_H16_RS01330 beta-alanine biosensor (pEH147)
- ASSAY SUMMARY: relative induction of RFP reporter vs primary effector (background-corrected); higher = stronger activation of the biosensor
- CONDITION SET: inducer concentration 5 mM; 6 h; Cupriavidus necator H16; minimal medium + 0.4% gluconate
REPORTED ENDPOINT: relative induction of RFP reporter (%)
Number in %, nothing else.

As a guide, the following entries are already answered.
COMPOUND: O=c1cc[nH]c(=O)[nH]1 [uracil]
MEASUREMENT UNIT: %
relative induction of RFP reporter: 0.971

COMPOUND: CCCC(=O)O [butyric acid]
MEASUREMENT UNIT: %
relative induction of RFP reporter: -0.94

COMPOUND: NCC(O)C(=O)O (configuration not stated) [3-amino-2-hydroxypropanoate]
MEASUREMENT UNIT: %
relative induction of RFP reporter: 33.2

Task: Item under review: N[C@@H](CC(=O)O)C(=O)O [L-aspartate] . Reported relative induction of RFP reporter?
Result: 0.356

Task: Next record, please: O=CC(=O)O [glyoxylate]
Result: 0.146

Task: Next record, please: O=C(O)c1c(O)cccc1O [2,6-dihydroxybenzoate]
Result: 0.369

Task: Next record, please: NCCc1ccc(O)c(O)c1 [dopamine]
Result: 0.108

* * *

- Test system: heterologous inducible system pEH086 (rhamnose/acrylate/cumate/itaconate set)
- ASSAY SUMMARY: relative induction of RFP reporter vs primary effector (background-corrected); higher = stronger activation of the biosensor
- CONDITION SET: inducer concentration 5 mM; 6 h; Cupriavidus necator H16; minimal medium + 0.4% gluconate
REPORTED ENDPOINT: relative induction of RFP reporter (%)
Number in %, nothing else.

As a guide, the following entries are already answered.
MOLECULE: C[C@H](O)C(=O)O [L-lactate]
TARGET: heterologous inducible system pEH086 (rhamnose/acrylate/cumate/itaconate set)
relative induction of RFP reporter, %: -0.0751
--
MOLECULE: CCCC(=O)O
TARGET: heterologous inducible system pEH086 (rhamnose/acrylate/cumate/itaconate set)
relative induction of RFP reporter, %: -0.0776
--
MOLECULE: C[C@@H](O)C(=O)O [D-lactate]
TARGET: heterologous inducible system pEH086 (rhamnose/acrylate/cumate/itaconate set)
relative induction of RFP reporter, %: 0.366
--
MOLECULE: O=C(O)[C@@H](O)[C@@H](O)[C@H](O)[C@@H](O)C(=O)O [glucarate]
TARGET: heterologous inducible system pEH086 (rhamnose/acrylate/cumate/itaconate set)
relative induction of RFP reporter, %: 0.127
--
MOLECULE: CCC(=O)O [propanoate]
TARGET: heterologous inducible system pEH086 (rhamnose/acrylate/cumate/itaconate set)
relative induction of RFP reporter, %: -0.0388
--
MOLECULE: NCC(N)C(=O)O (configuration not stated) [2,3-diaminopropanoate]
TARGET: heterologous inducible system pEH086 (rhamnose/acrylate/cumate/itaconate set)
relative induction of RFP reporter, %: 0.484
--
MOLECULE: O=C(O)CC(CC(=O)O)C(=O)O [tricarballylate]
TARGET: heterologous inducible system pEH086 (rhamnose/acrylate/cumate/itaconate set)
relative induction of RFP reporter, %: -0.0817
--
MOLECULE: O=c1cc[nH]c(=O)[nH]1
TARGET: heterologous inducible system pEH086 (rhamnose/acrylate/cumate/itaconate set)
relative induction of RFP reporter, %: 0.875
--
MOLECULE: O=C(O)c1c(O)cccc1O [2,6-dihydroxybenzoate]
TARGET: heterologous inducible system pEH086 (rhamnose/acrylate/cumate/itaconate set)
relative induction of RFP reporter, %: 0.26
--
MOLECULE: NC(C(=O)O)c1ccccc1 (racemic)
TARGET: heterologous inducible system pEH086 (rhamnose/acrylate/cumate/itaconate set)
relative induction of RFP reporter, %: 0.876

Task: # get_value(readout= relative induction of RFP reporter, system= heterologous inducible system pEH086 (rhamnose/acrylate/cumate/itaconate set)) for O=C(O)C1=CCCCC1 [cyclohexene-1-carboxylate]
Result: 0.551

Task: Next record, please: O=C(O)/C=C\C=C/C(=O)O [cis,cis-muconate]
Result: 0.0837
